This listing pairs binders with measured Kd.
target: T1, Notch2Long (Notch2 EGF6-EGF12) (human, UniProt Q04721 219-418, biotin via the N-terminal Avi tag (enzymatic biotinylation))
T1 construct: also called N2L protein; hNotch2; not shown: Avi tag, N-terminal, kept
T1 sequence (looked up): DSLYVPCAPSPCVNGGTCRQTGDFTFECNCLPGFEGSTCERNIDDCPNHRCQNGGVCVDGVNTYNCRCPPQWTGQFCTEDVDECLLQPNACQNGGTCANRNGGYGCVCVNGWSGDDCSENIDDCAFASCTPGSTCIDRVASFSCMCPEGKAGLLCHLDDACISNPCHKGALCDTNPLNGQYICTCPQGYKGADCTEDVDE
measurementProtocol: SPR
measurementConditions: both partners purified
Response body: numeric value in µM, unit text excluded.

Please review the entries below; each comes with its answer.
GCGWTLKHCKQDSDCLAGCVCEPIWWCG (designed binder) [N2L.EET03.30] = 13.1
GCGWTLWHCKQDSDCLAGCVCEPKWFCG (designed binder) [N2L.EET03.58] = 8.2
GCGWTLRHCKQDSDCLAGCVCEPVWWCG (designed binder) [N2L.EET03.88] = 8.8
GCGWTLRHCKQDSDCLAGCVCEPKWWCG (designed binder) [N2L.EET03.63] = 44.8
GCGWTLMHCKQDSDCLAGCVCEPIWWCG (designed binder) [N2L.EET03.n5] = 13.2

Data request: Recorded Kd of GCGWTLWHCKQDSDCLAGCVCEPKWMCG (designed binder) [N2L.EET03.67] , please.
Data returned: 15.4
